# target-entity: T1, Mcl-1, Q07820
# T1 chain: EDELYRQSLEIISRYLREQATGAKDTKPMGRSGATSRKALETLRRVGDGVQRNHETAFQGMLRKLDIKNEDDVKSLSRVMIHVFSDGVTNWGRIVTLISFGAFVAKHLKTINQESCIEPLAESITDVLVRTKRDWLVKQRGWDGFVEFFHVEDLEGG
# measurement-notes: direct-binding FP with the BODIPY-labeled analogue
readout-kind: pKd
Hey, just a heads up that pKd is the negative log base 10 of the concentration in molar.

Field pKd (entry EEQWAREIGAQLRRMADDLNAQYERR (peptide, UniProt Q9BXH1 130-155, looked up, modifications not checked) [BODIPY-TMR-labeled analog of Puma BH3 α/β-peptide 4′, Q9BXH1 130-155] ) reads 6.96
